Values were extracted from patent US20250275966A1.

experiment: Intrinsic dissolution rate and solubility in 0.1 N HCl with 1% Tween 80 (USP <1087>)
Assay type: physicochemical
condition context: 0.1 N HCl with 1% Tween 80, 37 °C, aqueous with cosolvent or surfactant or cyclodextrin, 500 mL, pellet about 75 mg, 45 min, read-out: Solubility, time point 45 min
Structures can show the parent of a compound that is named as a salt.
parameter: solubility at 45 min (µg/mL)
Quick reminder: number only, in µg/mL, skip the unit.

Task: Let me know recorded solubility at 45 min for [2H]C([2H])([2H])C(c1cc2nnc(-c3cc(F)ccc3F)n2nc1OCc1ncnn1C)(C([2H])([2H])[2H])C([2H])([2H])[2H] [Hydrochloride Salt] , thanks.
Result: 0.561
